Source of measurements: ChEMBL document CHEMBL2401613

MEASURED_TARGET: Histone deacetylase (Homo sapiens) (UniProt Q13547+O15379+Q9UBN7+Q92769+Q9UQL6+Q8WUI4+Q9BY41+Q96DB2+P56524+Q9UKV0+Q969S8)
PROTOCOL_DESCRIPTION: Inhibition of HDAC (unknown origin) at 1 uM
Assay type: protein assay
inhibition overview
Reply with just the number (in %).

Solved entries:
CHEMICAL_STRUCTURE: O=C(NCc1ccc2cc(C(=O)NO)sc2c1)c1ccccc1
inhibition [%]: 87

CHEMICAL_STRUCTURE: O=C(NO)c1cc2ccc(NCc3ccccc3)cc2s1
inhibition [%]: 79

CHEMICAL_STRUCTURE: COc1cccc(CC(=O)Nc2ccc3cc(C(=O)NO)sc3c2)c1
inhibition [%]: 83

CHEMICAL_STRUCTURE: N[C@H](C(=O)Nc1ccc2cc(C(=O)NO)sc2c1)c1ccccc1
inhibition [%]: 85

CHEMICAL_STRUCTURE: N[C@@H](C(=O)Nc1ccc2cc(C(=O)NO)sc2c1)c1ccccc1
inhibition [%]: 85

State the recorded inhibition for this entry: "O=C(NO)c1cc2ccc(CN(CCO)C(=O)Nc3ccccc3)cc2s1"
91

Request: "O=C(Cc1ccncc1)Nc1ccc2sc(C(=O)NO)cc2c1"
78
